# Test system: HTT
# assay_text: HiBiT protein abundance assay, HTT (K562 HiBiT knock-in)
# Format: cell-based, human
# measurement_context: HiBiT knock-in K562 cells, 24 hours, top dose 10 μM
Below: a set of entries, each annotated with reported IC50.

A selection of reference data follows.
# compound, IC50
rows = [
    ("Cc1cn2cc(-c3ncc4cc(N5C[C@@H](C)N[C@@H](C)C5)ccc4n3)cc(F)c2n1", "100 to 1000 nM"),
    ("Cc1c(O)c(-c2ncc3nc(N4C[C@@H](C)N[C@@H](C)C4)ccc3n2)cc2cn(C)nc12", "100 to 1000 nM"),
    ("CN[C@@H]1CCN(c2ccc3nc(-c4cc(F)c5nc(C)cn5c4)ncc3n2)C1", "100 to 1000 nM"),
]

q: What measured IC50 goes with Cc1cn2nc(-c3ccc4nc(N5CCC(NC(C)(C)C)C5)ccc4n3)cc(C)c2n1 (stereo not drawn) ?
a: < 100 nM

q: What measured IC50 goes with CNC1CCN(c2ccc3nc(-c4cc5oc(C)nc5cc4O)ccc3n2)CC1 ?
a: 1000 to 10000 nM

---

# System: MYB mRNA
# assay_text: RT-qPCR splicing assay, MYB mRNA canonical (CJ) and alternative (AJ) junction
# Type: cell-based, human
# measurement_context: Homo sapiens, MYB canonical junction mRNA, RT-qPCR; read-out: MYB CJ (decrease in CJ mRNA levels, IC50)
Below: a set of entries, each annotated with reported IC50.

# compound, measured_target, IC50
records = [
    ("Cc1nc2c(F)c(O)c(-c3ccc4nc(N5CC[C@@H](NC(C)(C)C)C5)ccc4n3)cc2o1 (single isomer, unassigned) [Compound 256]", "MYB mRNA", "< 100 nM"),
    ("Cc1nc2cc(O)c(-c3ccc4nc(N5CCN[C@@H](C)C5)ccc4n3)cc2o1 [Compound 409]", "MYB mRNA", "100 to 1000 nM"),
    ("Cc1cc2nc(-c3ccc4nc(N5CCC(NC(C)(C)C)C5)ccc4n3)cn2c(C)n1 (centres unmarked) [Compound 344]", "MYB mRNA", "1000 to 10000 nM"),
]

q: What measured IC50 goes with Cc1nc2c(C)c(O)c(-c3ccc4nc(N5CC[C@H](NC(C)(C)C)C5)ncc4n3)cc2o1 [Compound 437] ?
a: 100 to 1000 nM

q: What measured IC50 goes with C[C@@H]1CN(c2ccc3nc(-c4cc5cn(C)nc5c(F)c4O)nc(C(=O)NCCO)c3c2)C[C@H](C)N1 [Compound 737] ?
a: 100 to 1000 nM

q: What measured IC50 goes with CCNC(=O)c1nc(-c2cc3cn(C)nc3c(C)c2O)nc2ccc(N3C[C@@H](C)N[C@@H](C)C3)cc12 [Compound 535] ?
a: < 100 nM

q: What measured IC50 goes with c1c[nH]c(-c2ccc3nc(C4CCNCC4)ccc3n2)n1 [Compound 152] ?
a: > 10000 nM

q: What measured IC50 goes with Cn1cc2cc(-c3ccc4nc(OC5CNC5)ccc4n3)c(O)cc2n1 [Compound 159] ?
a: 1000 to 10000 nM

---

# Tested on: HTT
# assay_text: HiBiT protein abundance assay, HTT (K562 HiBiT knock-in)
# Assay type: cell-based, human
# measurement_context: HiBiT knock-in K562 cells, 24 hours, top dose 10 μM
pIC50: −log10 of the molar value.
Below: a set of entries, each annotated with reported pIC50.

# compound, pIC50
records = [
    ("Cc1nc2cc(O)c(-c3ccc4nc(N5CCC(NC(C)(C)C)C5)ccc4n3)cc2n1C (stereo not shown)", "6.00 to 7.00"),
    ("Cn1cc2cc(-c3ccc4nc(N5CCC(NC6(CF)CC6)C5)ccc4n3)c(O)c(F)c2n1 (stereo in doubt) [Compound 357]", "> 7.00"),
    ("Cn1cc2cc(-c3ccc4nc(N5CC[C@@H](NC6CC6)C5)ccc4n3)c(O)c(F)c2n1 (single isomer, unassigned)", "> 7.00"),
]

Attention now shifts to the item below.
q: What measured pIC50 goes with Cc1c(O)c(-c2ccc3nc(N4CCC(NC5COC5)C4)ccc3n2)cc2cn(C)nc12 (stereo not shown) ?
a: 6.00 to 7.00

---

# Test system: K562 cells
# assay_text: Cell Titer Glo 2.0 cell viability (toxicity) assay, K562
# measurement_context: 500 cells/well, 72 hours
recorded_endpoint: Effect of Exemplary Compounds on Cell Viability, K562

# molecule, reported_value
records = [
    ("CNC1CCN(c2ccc3nc(-c4cc(C#N)c5nc(C)cn5c4)ncc3n2)C1 (stereo not drawn)", "A (A represents <100 nM)"),
    ("Cn1cc2cc(-c3ccc4nc(N5CC[C@@H](NCC6CC6)C5)ccc4n3)c(O)c(F)c2n1 (single isomer, unassigned)", "A (A represents <100 nM)"),
]

---

Below: a set of entries, each annotated with reported IC50.
# Test system: MYB mRNA
# assay_text: RT-qPCR splicing assay, MYB mRNA canonical (CJ) and alternative (AJ) junction
# Type: cell-based, human
# measurement_context: Homo sapiens, MYB canonical junction mRNA, RT-qPCR; read-out: MYB CJ (decrease in CJ mRNA levels, IC50)

q: What measured IC50 goes with CC(C)N[C@H]1CCN(c2ccc3nc(-c4cc5cn(C)nc5c(F)c4O)ccc3n2)C1 (single isomer, unassigned) ?
a: < 100 nM

q: What measured IC50 goes with Cc1nc2c(F)c(O)c(-c3ccc4nc(N5CC[C@H](NC6(CF)CC6)C5)ccc4n3)cc2o1 (single isomer, unassigned) ?
a: < 100 nM

q: What measured IC50 goes with COc1cc2nc(C3COC3)oc2cc1-c1ccc2nc(N3CCC(NC(C)(C)C)C3)ccc2n1 (stereo not drawn) ?
a: 1000 to 10000 nM

q: What measured IC50 goes with Cc1nc2cc(O)c(-c3ccc4nc(N5CC[C@H](N[C@H]6C[C@@H](F)C6)C5)ccc4n3)cc2o1 (stereo in doubt) ?
a: 100 to 1000 nM

q: What measured IC50 goes with C[C@H]1CN(c2ccc3nc(-c4cc5cn(C)nc5cc4O)ncc3c2)C[C@H](C)N1 ?
a: < 100 nM

q: What measured IC50 goes with Cc1nc2cc(O)c(-c3ccc4nc(N5CC[C@H](NC(C)C)C5)ccc4n3)cc2o1 ?
a: < 100 nM

q: What measured IC50 goes with Cc1c(O)c(-c2ccc3nc(N4CC[C@H](NCC5CC5)C4)ccc3n2)cc2cn(C)nc12 (single isomer, unassigned) ?
a: < 100 nM

q: What measured IC50 goes with CNC(=O)c1nc(-c2cc3cn(C)nc3c(F)c2O)nc2ccc(N3C[C@H](C)N[C@@H](C)C3)cc12 (single isomer, unassigned) ?
a: < 100 nM

q: What measured IC50 goes with Cn1cc2cc(-c3ncc4nc(C5CCNCC5)ccc4n3)c(O)c(C#N)c2n1 ?
a: 100 to 1000 nM

q: What measured IC50 goes with Cc1nc2cc(O)c(-c3ccc4nc(N5C[C@@H](C)N[C@@H](C)C5)ccc4n3)cc2o1 ?
a: 100 to 1000 nM

q: What measured IC50 goes with CNC(=O)c1nc(-c2cc3cn(C)nc3c(F)c2O)nc2ccc(N3CCN[C@@H](C)C3)cc12 ?
a: < 100 nM

---

# Tested on: Target C
# assay_text: RT-qPCR canonical junction panel assay, Target C mRNA
# Type: cell-based
# measurement_context: Table 4, read-out: Target C IC50 (decrease in CJ mRNA levels)
pIC50: −log10 of the molar value.
Below: a set of entries, each annotated with reported pIC50.

A selection of reference data follows.
# compound, reported_value
data = [
    ("CNC(=O)c1nc(-c2cc3cn(C)nc3c(F)c2O)nc2ccc(N3CCC(N4CCC4)CC3)cc12 [Compound 722]", "6.00 to 7.00"),
    ("Cc1c(O)c(-c2ccc3nc(N4CC[C@H](N[C@H]5C[C@H](F)C5)C4)ccc3n2)cc2cn(C)nc12 (single isomer, unassigned) [Compound 358]", "6.00 to 7.00"),
]

q: What measured pIC50 goes with Cn1cc2cc(-c3ccc4nc(N5CC[C@@H](NC6CC6)C5)ccc4n3)c(O)c(F)c2n1 (single isomer, unassigned) [Compound 305] ?
a: > 7.00

---

# Tested on: HTT
# assay_text: HiBiT protein abundance assay, HTT (K562 HiBiT knock-in)
# Assay type: cell-based, human
# measurement_context: HiBiT knock-in K562 cells, 24 hours, top dose 10 μM
Counter-ions that a name gives are not always drawn.
Below: a set of entries, each annotated with reported IC50.

# molecule, reported_value
records = [
    ("Cc1nc2cc(O)c(-c3ccc4nc(N5CCC(NC(C)(C)C)CC5)ccc4n3)cc2o1 [Compound 412]", "100 to 1000 nM"),
    ("Cn1cc2cc(-c3ccc4nc(N5CC[C@H](NCC(F)(F)F)C5)ccc4n3)c(O)cc2n1 [Compound 182]", "> 10000 nM"),
    ("Cc1cc2nc(-c3cc4cn(C)nc4c(C)c3O)cc(Cl)c2cc1N1CCNCC1 [Compound 484]", "1000 to 10000 nM"),
    ("C[C@@H]1CN(c2cc(F)c3nc(-c4cc5cn(C)nc5cc4O)ccc3c2)C[C@H](C)N1 [Compound 768, hydrochloride]", "1000 to 10000 nM"),
    ("Cc1nc2cc(O)c(-c3ccc4nc(N5CC[C@@H](N[C@H]6C[C@@H](F)C6)C5)ccc4n3)cc2o1 (stereo in doubt) [Compound 395]", "100 to 1000 nM"),
]

q: What measured IC50 goes with Cn1cc2cc(-c3ccc4nc(N5CC[C@H](NC6(CF)CC6)C5)ccc4n3)c(O)cc2n1 [Compound 355] ?
a: < 100 nM

q: What measured IC50 goes with CNC(=O)c1nc(-c2cc3cn(C)nc3c(C)c2O)nc2ccc(N3C[C@@H](C)N[C@@H](C)C3)cc12 [Compound 511] ?
a: 100 to 1000 nM

Each recorded value in this set is attributed to patent US20250092065A1.
